system: NK-YS (IL-2 2.5 ng/mL); assay: percent inhibition of viability; higher = more inhibition; settings: 72 h; 25 nM;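 also: normalised to DMSO-only wells as negative and benzethonium chloride as positive control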
Entries and their percent inhibition of viability values follow.
outcomeMeasure: percent inhibition of viability (%)

{"compound": "Cn1cc(-c2cnn3c(N)c(Br)c([C@@H]4CCCNC4)nc23)cn1 [MK-8776] (max concentration tested 2500 nM)", "valueMeasured": -3.31}
{"compound": "Cc1nc(NC(=O)N2CCC[C@H]2C(N)=O)sc1-c1ccnc(C(C)(C)C(F)(F)F)c1 [Alpelisib] (max concentration tested 2500 nM)", "valueMeasured": 4.37}
{"compound": "CC(=O)Nc1cccc(-n2c(=O)n(C3CC3)c(=O)c3c(Nc4ccc(I)cc4F)n(C)c(=O)c(C)c32)c1 [Trametinib] (max concentration tested 250 nM)", "valueMeasured": 13.2}
{"compound": "COc1ccc(CCc2nc3cc(-c4c(C)noc4C)ccc3n2C[C@H](C)N2CCOCC2)cc1Cl [SGC-CBP30] (max concentration tested 25000 nM)", "valueMeasured": -5.16}

Reference source for all entries: the supplement of paper PMC5908809
